Values were extracted from paper PMC9482650.

Molecular target: T1, LIN7A, O14910
T1 sequence (O14910 103-200, limits assumed, looked up): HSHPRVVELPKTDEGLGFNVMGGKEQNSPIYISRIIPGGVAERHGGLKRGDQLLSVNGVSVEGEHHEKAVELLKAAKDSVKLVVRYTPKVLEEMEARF
Assay: holdup assay
Parameters: key: below the threshold = too weak to quantify, mostly under pKd 3.1 to 4
Settings: plain residues with an end cap or a label only (N-terminal biotin on a linker: ahx)
MEASURE: pKd

Below are worked cases with known answers.
- BINDER: "TVICWPGSLV [LNX2, Q8N448]"
  pKd: 4.35
- BINDER: "HNAFLSVTTV [PDZRN4, Q6ZMN7]"
  pKd: 3.52
- BINDER: "NRKREIFSNF [NHERF2, Q15599]"
  pKd: "below the threshold"
- BINDER: "RAVEEEESRF [PSCDBP, O60759]"
  pKd: "below the threshold"
- BINDER: "ESLLLGPSNF [SHROOM4, Q9ULL8]"
  pKd: "below the threshold"
- BINDER: "RRRKRKRTYL [HPV49-L2, P36762]"
  pKd: "below the threshold"

input: Item LSDPSVSTVV [GRIN1, Q05586;Q05586-2] has what recorded pKd?
output: below the threshold

input: Entry PSASCAVTAA [PDLIM4, P50479;P50479-2] please
output: below the threshold

input: Entry SDSSGQEYSL [KCTD3, Q9Y597] please
output: below the threshold

input: Entry GYDWGPATDL [TJP3, O95049] please
output: 3.66
